Provenance of the data: PubChem BioAssay (NCI)

# protocol_description: NCI Yeast Anticancer Drug Screen. Data for the cln2 rad14 strain (AID 165)
# condition_label: S. cerevisiae cln2 rad14 strain, at 50.0 µM (retest, dose inferred, filed as 5.0)
# Description: Growth inhibition of yeast strains with defined genetic alterations is measured as a screen for potential anti-cancer activity. Selected strains with alterations in DNA damage repair or cell cycle control were exposed to compounds and growth inhibition was measured relative to vehicle treated controls. The strain used in this assay is cln2 rad14
Compounds without any hit were thinned out: in the full panel of roughly 79,000, 15% have a hit. Activity calls are given as the source filed them. Cut-off read from the data, not from the text of the source: active = growth inhibition above about 70%; inactive = the rest.
Outcome codes: active, inactive

- compound: "CCOC(=O)CC1C(=O)N(c2nc(-c3ccc(Br)cc3)cs2)N=C1C (configuration not stated)"
  category_label: "inactive"
- compound: "CC(CN(C)C)C(/C=C/c1ccc(Cl)c(Cl)c1)=N\\Nc1ccccc1 (configuration not stated)"
  category_label: "active"
- compound: "COC1OC(CBr)C(OC(c2ccccc2)(c2ccccc2)c2ccccc2)C(OC(c2ccccc2)(c2ccccc2)c2ccccc2)C1OC(c1ccccc1)(c1ccccc1)c1ccccc1 (configuration not stated)"
  category_label: "inactive"
- compound: "CCCCCCCCCCCC#CCCCCC(=O)O"
  category_label: "active"
- compound: "CN(C)CC1CCc2c(ccc3ccccc23)C1=O (configuration not stated)"
  category_label: "inactive"
- compound: "COc1ccc2c(c1)[n+]([O-])c(C(N)=O)c(N)[n+]2[O-]"
  category_label: "active"
- compound: "Cc1cccc(N=Nc2ccc(O)cc2)c1"
  category_label: "active"
- compound: "Clc1ccc(CN2COc3c(cc(Cl)c4cccnc34)C2)cc1Cl"
  category_label: "active"
- compound: "CCCCN(CCO)CC(O)Cn1cnc2c(N)ncnc21 (configuration not stated) (tested in a mixture with another compound)"
  category_label: "inactive"
- compound: "c1ccc(C2=NOC3(c4ccccc4)SC4CCCCC4CN23)cc1 (configuration not stated)"
  category_label: "active"
- compound: "CC(=O)NC1=C(Sc2ccc([N+](=O)[O-])cc2)C(=O)c2ccccc2C1=O"
  category_label: "inactive"
- compound: "O=C1OC(CCl)CC12CC(CCl)OC2=O (configuration not stated)"
  category_label: "inactive"
- compound: "COc1ccc2c(c1OC)OCC2C (configuration not stated)"
  category_label: "inactive"
- compound: "COc1cc(C(=O)C2OC2c2ccc(Cl)cc2)c([N+](=O)[O-])cc1OC (configuration not stated)"
  category_label: "inactive"
- compound: "COc1cc[c]([Sn]([O][Sn]([Cl])([c]2ccc(OC)cc2)[c]2ccc(OC)cc2)[c]2ccc(OC)cc2)cc1"
  category_label: "active"
- compound: "C[n+]1c2ccc(Cl)cc2nc2cc(-c3ccccc3)ccc21"
  category_label: "active"
- compound: "C[N+]1=C(/C=C\\c2ccc(O)c3ccccc23)C(C)(C)c2ccccc21"
  category_label: "active"
- compound: "CCCCCCCCCCCCOC(=O)CC1CC(C(C)=O)C1(C)C (configuration not stated)"
  category_label: "inactive"
- compound: "CCC[CH2][Sn]([CH2]CCC)([O]C(=O)c1cc(OC)c(OC)cc1OC)[O]C(=O)c1cc(OC)c(OC)cc1OC"
  category_label: "active"
- compound: "O=C(NCCN1CCCC1)c1cn2c(ccc3sc4ccccc4c(=O)c32)n1"
  category_label: "inactive"
- compound: "CCCCCCCCCCCCC1N=C(N)N2CCCC2=C1C(=O)OC (configuration not stated)"
  category_label: "active"
- compound: "O=C(Nc1ccc([N+](=O)[O-])cc1[N+](=O)[O-])C(=O)C(C(=O)c1ccc(Cl)c(Cl)c1)C1OC(=O)c2ccccc21 (configuration not stated)"
  category_label: "inactive"
- compound: "COC1/C=C/OC2(C)Oc3c(C)c(O)c4c(c3C2=O)C(=O)c2cnc(nc2C4=O)/C(C)=C\\C=C\\C(C)C(O)C(C)C(O)C(C)C(OC(C)=O)C1C (configuration not stated)"
  category_label: "active"
- compound: "C=CC[P+](CC[P+](CC=C)(c1ccccc1)c1ccccc1)(c1ccccc1)c1ccccc1"
  category_label: "inactive"
- compound: "Nc1ccc2ccccc2c1N=Nc1ccccc1"
  category_label: "active"
- compound: "CC(NNC(=S)NCc1ccccc1)c1cc2ccccc2cn1 (configuration not stated)"
  category_label: "active"
- compound: "CCCCCCCCCCCCCCCCCC(=O)OCCN1C(=O)c2ccccc2C1=O"
  category_label: "inactive"
- compound: "FC(F)(F)c1ccc(NC(=S)SCc2ccc3c(c2)OCO3)cc1"
  category_label: "inactive"
- compound: "O=C(O)C1C(C(=O)O)C2C(=O)C=CC1N2Cc1ccccc1 (configuration not stated)"
  category_label: "inactive"
- compound: "COC(=O)c1n[nH]c(C(C)C)c1N=NN(C)C"
  category_label: "active"
- compound: "CCN(CC)CCOc1c(I)cc(I)cc1I"
  category_label: "active"
- compound: "CCCCCCCCCCCCCCCCP(=O)([O-])OCC[N+](C)(C)C"
  category_label: "active"
- compound: "CCOC(=O)c1[nH]c2c([N+](=O)[O-])cccc2c1[N+](=O)[O-]"
  category_label: "inactive"
- compound: "COc1ccc(Cc2nc3ccccc3s2)cc1OC"
  category_label: "active"
- compound: "Cc1[nH]ccc2c(C)c3nc4ccccc4c3cc12"
  category_label: "active"
- compound: "CC1(c2ccccc2)OC(=O)C=CC1=O (configuration not stated)"
  category_label: "active"
- compound: "O=C(c1ccc(O)c(Br)c1)c1cc(Br)ccc1O"
  category_label: "active"
- compound: "COc1cc(NCCCCCNC(C)C)c2ncc(C)c(C)c2c1"
  category_label: "inactive"
- compound: "CCCN1CN(C(C(=O)N[C@@H]2C(=O)N3C(C(=O)O)=C(C)CSC23)c2ccccc2)CSC1=S (some centres not stated)"
  category_label: "inactive"
- compound: "CC1=C(C(=O)NCc2ccccc2)C(c2ccccc2O)C(C(=O)NCc2ccccc2)=C(C)N1"
  category_label: "inactive"
- compound: "CC(C)C1=CC23CCC4C(C)(C(=O)O)CCCC4(C)C2CC1C(C(=O)O)C3C(=O)O (configuration not stated)"
  category_label: "active"
- compound: "C/C(=N\\NC(=O)c1ccc([N+](=O)[O-])cc1)c1ccccc1"
  category_label: "inactive"
